Property: IC50; scope: individual compounds
- targetDesc: bile salt export pump (BSEP) (Homo sapiens, UniProt O95342)
- Construct: gene ABCB11
- Sequence (O95342 whole entry): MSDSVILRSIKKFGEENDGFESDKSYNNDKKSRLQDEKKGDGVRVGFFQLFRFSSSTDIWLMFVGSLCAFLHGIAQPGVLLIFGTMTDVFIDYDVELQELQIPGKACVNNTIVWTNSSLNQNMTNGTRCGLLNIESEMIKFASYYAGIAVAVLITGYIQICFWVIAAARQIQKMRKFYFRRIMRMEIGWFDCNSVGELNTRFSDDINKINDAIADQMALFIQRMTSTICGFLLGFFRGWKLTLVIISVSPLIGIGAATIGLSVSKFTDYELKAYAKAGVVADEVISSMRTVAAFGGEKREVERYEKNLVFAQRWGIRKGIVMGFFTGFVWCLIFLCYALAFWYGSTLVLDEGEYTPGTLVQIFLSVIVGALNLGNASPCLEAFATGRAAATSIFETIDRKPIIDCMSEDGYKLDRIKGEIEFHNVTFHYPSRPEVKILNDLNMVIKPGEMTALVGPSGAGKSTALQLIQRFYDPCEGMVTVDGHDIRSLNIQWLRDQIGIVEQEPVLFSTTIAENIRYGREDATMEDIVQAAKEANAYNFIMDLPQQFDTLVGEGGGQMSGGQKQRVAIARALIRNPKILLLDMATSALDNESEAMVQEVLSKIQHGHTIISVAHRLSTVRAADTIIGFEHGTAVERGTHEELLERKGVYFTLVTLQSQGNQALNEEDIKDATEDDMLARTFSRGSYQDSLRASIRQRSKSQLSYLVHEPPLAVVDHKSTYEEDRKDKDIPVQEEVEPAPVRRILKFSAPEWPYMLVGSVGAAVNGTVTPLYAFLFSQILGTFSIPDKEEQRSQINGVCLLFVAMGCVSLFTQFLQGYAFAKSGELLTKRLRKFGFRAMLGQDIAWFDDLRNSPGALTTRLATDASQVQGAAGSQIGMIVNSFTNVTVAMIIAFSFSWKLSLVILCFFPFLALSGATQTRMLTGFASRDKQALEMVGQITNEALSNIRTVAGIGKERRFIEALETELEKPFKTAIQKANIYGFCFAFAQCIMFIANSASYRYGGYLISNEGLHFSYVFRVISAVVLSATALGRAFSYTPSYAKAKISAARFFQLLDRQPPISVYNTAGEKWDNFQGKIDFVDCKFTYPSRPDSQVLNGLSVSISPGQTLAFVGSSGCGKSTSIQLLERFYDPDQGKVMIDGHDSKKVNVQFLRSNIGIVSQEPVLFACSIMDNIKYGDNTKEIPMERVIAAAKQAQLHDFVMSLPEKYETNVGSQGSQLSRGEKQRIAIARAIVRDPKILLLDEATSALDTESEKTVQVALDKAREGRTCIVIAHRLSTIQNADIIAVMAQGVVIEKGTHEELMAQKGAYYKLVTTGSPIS
- method: inhibition of taurocholate transport in membrane preparations from HEK293 cells overexpressing human BSEP
- Format: biochemical
readout: IC50 (µM)

[
  {
    "compound": "CCCC1COC(Cn2cncn2)(c2ccc(Cl)cc2Cl)O1 (centres unmarked)",
    "readout": "IC50",
    "experimentalValue": 78.6
  },
  {
    "compound": "CC(C)(C)C(O)(CCc1ccc(Cl)cc1)Cn1cncn1 (centres unmarked)",
    "readout": "IC50",
    "experimentalValue": 38
  }
]

Hello, the source for this data is paper PMC9600068, in case you need it.
